- system: Notch1 receptor with L1575P mutation (HPB-ALL cells) (UniProt P46531 19-2555, limits assumed)
- Sequence (P46531 19-2555 L1593P limits assumed): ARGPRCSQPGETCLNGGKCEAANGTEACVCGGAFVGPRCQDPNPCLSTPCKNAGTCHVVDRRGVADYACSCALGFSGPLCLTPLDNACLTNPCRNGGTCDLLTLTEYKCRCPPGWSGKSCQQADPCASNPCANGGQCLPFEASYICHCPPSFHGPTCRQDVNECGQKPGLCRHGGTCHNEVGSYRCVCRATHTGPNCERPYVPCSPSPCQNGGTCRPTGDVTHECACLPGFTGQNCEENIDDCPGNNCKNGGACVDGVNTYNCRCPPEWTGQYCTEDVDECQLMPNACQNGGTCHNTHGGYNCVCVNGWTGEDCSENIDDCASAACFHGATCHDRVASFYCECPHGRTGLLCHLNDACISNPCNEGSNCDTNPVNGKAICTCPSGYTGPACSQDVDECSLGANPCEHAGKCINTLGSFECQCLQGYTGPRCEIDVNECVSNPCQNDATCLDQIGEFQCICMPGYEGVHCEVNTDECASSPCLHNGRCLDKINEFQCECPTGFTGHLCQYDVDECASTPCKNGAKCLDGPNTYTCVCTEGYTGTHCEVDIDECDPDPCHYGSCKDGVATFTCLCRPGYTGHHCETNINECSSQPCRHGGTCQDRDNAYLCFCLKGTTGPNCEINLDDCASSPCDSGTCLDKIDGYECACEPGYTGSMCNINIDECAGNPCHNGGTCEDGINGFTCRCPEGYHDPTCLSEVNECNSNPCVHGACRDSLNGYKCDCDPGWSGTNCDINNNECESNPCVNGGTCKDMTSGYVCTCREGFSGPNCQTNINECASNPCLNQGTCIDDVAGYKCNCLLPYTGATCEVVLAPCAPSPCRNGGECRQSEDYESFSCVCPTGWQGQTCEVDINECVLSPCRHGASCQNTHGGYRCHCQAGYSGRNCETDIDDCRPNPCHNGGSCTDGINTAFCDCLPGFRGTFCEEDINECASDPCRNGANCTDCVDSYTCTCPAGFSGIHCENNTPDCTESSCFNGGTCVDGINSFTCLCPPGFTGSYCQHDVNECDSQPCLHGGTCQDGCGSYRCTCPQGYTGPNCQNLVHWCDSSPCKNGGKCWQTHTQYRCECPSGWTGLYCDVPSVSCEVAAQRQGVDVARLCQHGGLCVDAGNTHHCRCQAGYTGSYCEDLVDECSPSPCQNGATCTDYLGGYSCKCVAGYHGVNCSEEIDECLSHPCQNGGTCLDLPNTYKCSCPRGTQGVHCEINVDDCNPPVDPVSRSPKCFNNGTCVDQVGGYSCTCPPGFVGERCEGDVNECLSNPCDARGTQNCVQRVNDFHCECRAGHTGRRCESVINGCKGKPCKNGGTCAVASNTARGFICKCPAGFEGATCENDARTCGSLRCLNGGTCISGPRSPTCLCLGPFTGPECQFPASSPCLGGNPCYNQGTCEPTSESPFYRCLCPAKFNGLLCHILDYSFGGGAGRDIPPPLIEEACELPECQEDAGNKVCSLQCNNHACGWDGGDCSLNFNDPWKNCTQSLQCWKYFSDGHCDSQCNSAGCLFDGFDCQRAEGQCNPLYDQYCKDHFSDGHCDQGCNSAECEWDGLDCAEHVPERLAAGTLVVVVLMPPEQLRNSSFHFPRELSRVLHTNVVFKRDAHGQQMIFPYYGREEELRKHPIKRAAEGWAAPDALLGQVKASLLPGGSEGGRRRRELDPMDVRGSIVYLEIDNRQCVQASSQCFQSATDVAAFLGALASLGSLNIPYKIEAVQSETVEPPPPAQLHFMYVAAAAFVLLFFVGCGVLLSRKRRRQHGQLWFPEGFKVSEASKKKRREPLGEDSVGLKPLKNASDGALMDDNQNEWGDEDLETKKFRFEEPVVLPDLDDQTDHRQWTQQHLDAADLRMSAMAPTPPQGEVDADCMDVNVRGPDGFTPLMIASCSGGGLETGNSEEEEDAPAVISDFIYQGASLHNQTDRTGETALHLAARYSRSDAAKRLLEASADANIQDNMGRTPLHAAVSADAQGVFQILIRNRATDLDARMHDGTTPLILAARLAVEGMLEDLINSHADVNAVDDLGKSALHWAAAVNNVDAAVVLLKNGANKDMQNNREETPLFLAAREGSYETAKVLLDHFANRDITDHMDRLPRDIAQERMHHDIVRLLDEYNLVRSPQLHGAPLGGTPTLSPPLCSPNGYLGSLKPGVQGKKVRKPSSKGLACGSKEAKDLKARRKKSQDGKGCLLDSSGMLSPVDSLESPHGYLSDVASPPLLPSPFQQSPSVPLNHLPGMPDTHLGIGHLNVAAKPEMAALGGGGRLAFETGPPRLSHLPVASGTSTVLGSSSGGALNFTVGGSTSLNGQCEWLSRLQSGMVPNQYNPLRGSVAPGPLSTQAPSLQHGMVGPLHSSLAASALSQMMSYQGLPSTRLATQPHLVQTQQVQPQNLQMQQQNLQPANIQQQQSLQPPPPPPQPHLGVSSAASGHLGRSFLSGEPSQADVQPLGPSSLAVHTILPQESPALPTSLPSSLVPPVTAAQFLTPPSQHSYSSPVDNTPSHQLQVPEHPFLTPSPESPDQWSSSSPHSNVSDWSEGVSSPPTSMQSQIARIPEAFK
- experiment-notes: cell-based or functional assay
# key: entry, value: IC50, MTS viability assay of HPB-ALL leukemia cells
experimental-readout: IC50, MTS viability assay of HPB-ALL leukemia cells (nM)

binder	unit-string	quantitative-result
humanized 438 VH1.1/VL1.8 (antibody, human IgG1, kappa, V domains shown, full chains (VH1.1)-hIgG1-3M and (VL1.8)-hkappa) VH: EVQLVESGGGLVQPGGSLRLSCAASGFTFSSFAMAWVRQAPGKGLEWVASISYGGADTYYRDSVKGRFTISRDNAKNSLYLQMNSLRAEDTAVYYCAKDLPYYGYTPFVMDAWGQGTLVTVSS VL: DIQMTQSPSSLSASVGDRVTITCRASQRINTDLHWYQQKPGKAPKVLIKFASQTISGVPSRFSGSGSGTDFTLTISSLQPEDFATYYCQQSNSWPYTFGQGTKLEIKR	nM	2.26
rat 351(R58Y)-mIgG1 (antibody, V domains shown) VH: EVQLVESGGGLVQPGRSLKVSCLASGFTFSHYGMNWIRQAPGKGLDWVASISRSGSYIYYVDTVKGRFTVSRDIAKNTLYLQMTSLRSEDTALYYCAREGQFGDYFEYWGQGVMVTVSS VL: DIMLTQSPATLSVTPGERISLSCRASQKISTNLHWYQQKPNESPRILIKYASQTISGIPSRFSGSGSGTDFTLHINTVEPEDFSVYYCQQTNSWPLTFGSGTKLEIK	nM	2.17
rat 351-mIgG1 (antibody, V domains shown) VH: EVQLVESGGGLVQPGRSLKVSCLASGFTFSHYGMNWIRQAPGKGLDWVASISRSGSYIRYVDTVKGRFTVSRDIAKNTLYLQMTSLRSEDTALYYCAREGQFGDYFEYWGQGVMVTVSS VL: DIMLTQSPATLSVTPGERISLSCRASQKISTNLHWYQQKPNESPRILIKYASQTISGIPSRFSGSGSGTDFTLHINTVEPEDFSVYYCQQTNSWPLTFGSGTKLEIK	nM	1.27
rat 351(R58Y/V60A)-mIgG1 (antibody, V domains shown) VH: EVQLVESGGGLVQPGRSLKVSCLASGFTFSHYGMNWIRQAPGKGLDWVASISRSGSYIYYADTVKGRFTVSRDIAKNTLYLQMTSLRSEDTALYYCAREGQFGDYFEYWGQGVMVTVSS VL: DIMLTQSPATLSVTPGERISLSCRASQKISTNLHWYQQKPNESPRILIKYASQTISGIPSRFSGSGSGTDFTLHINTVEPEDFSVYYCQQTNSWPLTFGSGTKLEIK	nM	2.49
